Target: HLA-A*02:03
Test: IEDB peptide-MHC binding, purified MHC/competitive/radioactivity; filed as Kd, often an IC50 or EC50 that approximates it; bounds were set here for any values at or beyond the usual limits of such assays
Details: source organism: Lassa virus Josiah
assay-metric: Kd (nM)
Field format: number, assumed nM, no unit text.

Find the recorded Kd belonging to YLISIFLHL and report it.
11

* * *

Biological target: HLA-A*02:01
Test: IEDB peptide-MHC binding, purified MHC/competitive/radioactivity; filed as Kd, often an IC50 or EC50 that approximates it; bounds were set here for any values at or beyond the usual limits of such assays
Settings: source organism: Pichinde virus strain Munchique
assay-metric: pKd
pKd (log units): -log10 of the concentration in mol/L.

Find the recorded pKd belonging to YTITVFLHL and report it.
8.00
